Taken from patent US7696174B2.

# Test system: PAM 212 murine epidermal keratinocyte
# protocol description: Cell proliferation assay, PAM 212 murine epidermal keratinocytes
# Assay type: cell-based
# test conditions: 46.4 μg/mL peptide; control = cells treated with PBS only
Here, each record is paired with measured cell proliferation as a percent of control cell proliferation data.
Kindly provide the numeric value in % only, without the unit symbol.

Observe how each entry below is paired with its result.
- EKMGRNIRN (listed as Hyalophora cecropia) [HB-1059, fragment of HB-107]: 186
- MPKEKVFLKIEKMG (listed as Hyalophora cecropia) [HB-912, fragment of HB-107]: 137

Consider the additional sequence presented here.
Tested on PAM 212 murine epidermal keratinocyte: KMGRNIRN (listed as Hyalophora cecropia) [HB-1060, fragment of HB-107] . Observed cell proliferation as a percent of control cell proliferation: 83
